# TARGET_OF_ASSAY: FLNA pentapeptide of SEQ ID NO: 1 (Bn-VAKGL) (Homo sapiens, UniProt P21333)
# EXPERIMENT: FITC-NLX-based FLNA screening assay (inhibition of FITC-naloxone binding to Bn-VAKGL on streptavidin plates)
# ASSAY_CONTEXT: read-out: Percent Binding Inhibition, FLNA-binding compound 0.1 μM; 10 nM FITC-NLX
ATTRIBUTE_MEASURED: inhibition at 0.1 µM (%)
# value in %; strip the unit string

Below, 5 compounds whose answers are already recorded.
[[record]]
compound = "CS(=O)(=O)c1ccc(S(=O)(=O)N2CCC3(CC2)OCCN3S(=O)(=O)c2ccc(S(C)(=O)=O)cc2)cc1"
measurement_unit = "%"
endpoint_result = 49

[[record]]
compound = "COc1ccc(C(=O)CC2c3c(cc4c(c3OC)OCO4)CC[N+]2(C)C)c(O)c1 (stereo not shown)"
measurement_unit = "%"
endpoint_result = 46.8

[[record]]
compound = "O=S(=O)(c1cccc2cccnc12)N1CCC2(CC1)OCCN2S(=O)(=O)c1cccc2cccnc12 [Compound C0143M]"
measurement_unit = "%"
endpoint_result = 48.4

[[record]]
compound = "COc1c2c(cc3c1C(CC(O)CCc1ccccc1)[N+](C)(C)CC3)OCO2 (stereo not shown)"
measurement_unit = "%"
endpoint_result = 39.1

[[record]]
compound = "O=S(=O)(c1cccc(OC(F)(F)F)c1)N1CCC2(CC1)OCCN2S(=O)(=O)c1cccc(OC(F)(F)F)c1"
measurement_unit = "%"
endpoint_result = 44.5


Log: FLNA pentapeptide of SEQ ID NO: 1 (Bn-VAKGL) (Homo sapiens, UniProt P21333), compound COc1ccccc1CC(O)CC1c2c(cc3c(c2OC)OCO3)CC[N+]1(C)C (stereo not shown) , inhibition at 0.1 µM = 51.3

Log: FLNA pentapeptide of SEQ ID NO: 1 (Bn-VAKGL) (Homo sapiens, UniProt P21333), compound COc1c2c(cc3c1C(CC(=O)Cc1ccccc1C)[N+](C)(C)CC3)OCO2 (stereo not shown) , inhibition at 0.1 µM = 44.2

Log: FLNA pentapeptide of SEQ ID NO: 1 (Bn-VAKGL) (Homo sapiens, UniProt P21333), compound OC(COc1ccc(Br)c(F)c1)CN1CCCCC1 (stereo not shown) , inhibition at 0.1 µM = 36.6

Log: FLNA pentapeptide of SEQ ID NO: 1 (Bn-VAKGL) (Homo sapiens, UniProt P21333), compound O=S(=O)(c1ccc2ccccc2c1)N1CCC2(CC1)OCCN2S(=O)(=O)c1ccc2ccccc2c1 [Compound C0140M] , inhibition at 0.1 µM = 49.2

Log: FLNA pentapeptide of SEQ ID NO: 1 (Bn-VAKGL) (Homo sapiens, UniProt P21333), compound "O=S(=O)(c1ccc(OC(F)(F)F)cc1)N1CCC2(CC1)OCCN2S(=O)(=O)c1ccc(OC(F)(F)F)cc1" , inhibition at 0.1 µM = 46.8
